Test system: OVCAR-5
test method notes: NCI tumour cell line growth inhibition, 48 h
Active and inactive are the calls of the source. Cut-off read from the data, not from the text of the source: active = GI50 up to about 1.1 µM and inactive = higher.
observable: GI50

// worked examples, GI50 included
S=C(N/N=C(/c1ccccc1)c1ccccn1)N1CCCCC1
0.0455 µM (active)
CC1=CC(=O)/C(=C/NC(=S)Nc2ccccc2)C(=O)O1
> 100 µM (inactive)
Nc1nc(S)c2c(N)n[nH]c2c1C(=O)Nc1ccccc1
> 100 µM (inactive)
CC1(C)CC(/C=C2/OC(=O)c3ccccc32)=C(C#N)C(=O)O1
> 100 µM (inactive)
COc1cc2nc(-c3cccc(N(C)C)c3)cc(O)c2cc1OC
5.18 µM (inactive)
COc1ccc(C(=O)CC(c2ccc(OC)c(OC)c2)c2c(O)oc3ccccc3c2=O)cc1OC (configuration not stated)
> 100 µM (inactive)
COc1cc(O)c2c(c1O)C(=O)c1cc(C)ncc1C2=O
44.9 µM (inactive)
O=C1c2cccnc2S(=O)(=O)N1c1ccc(Oc2ccccc2)cc1
> 100 µM (inactive)
N=c1oc2c(Cl)cc(Cl)cc2cc1C(=O)Nc1ccccn1
> 100 µM (inactive)
O=C1CCCc2ccc3c(c21)CC1(Cc2cc4c(cc2C1)CCCC4)C3
27.4 µM (inactive)

Reported GI50 for CCCC(=O)Nc1cc(/C=C/C(=O)N2CC(CCl)c3ccc([N+](=O)[O-])cc32)n(C)c1 (configuration not stated) was > 100 µM (inactive)

Reported GI50 for N#Cc1c(-c2ccccc2)cc(Nc2ccc(F)cc2)n2c1nc1ccccc12 was 3.16 µM (inactive)

Reported GI50 for CC(C)C(=O)NC(=S)Nc1ccc([N+](=O)[O-])cc1C#N was > 100 µM (inactive)

Reported GI50 for CC(C)C1=CC23CCC4C(C)(C(=O)O)CCCC4(C)C2CC1C1C(=O)N(c2ccc(N4C(=O)C5C6CC7C8(C)CCCC(C)(C(=O)O)C8CCC7(C=C6C(C)C)C5C4=O)cc2)C(=O)C13 (configuration not stated) was 10.3 µM (inactive)

Reported GI50 for O=C1/C(=C\c2cccc(Oc3ccccc3)c2)SC(c2ccccc2)N1c1cccc([N+](=O)[O-])c1 (configuration not stated) was > 100 µM (inactive)

Reported GI50 for O=C1C[C@H](Sc2ccccc2)C2(OCCO2)[C@H]2ON3CCC[C@@H]3[C@@H]12 was 3.01 µM (inactive)

Reported GI50 for COc1ccc(CNc2nc3cc(C(F)(F)F)ccc3nc2C)cc1OC was 37.5 µM (inactive)

----------
Tested on: NCI-H460
test method notes: NCI tumour cell line growth inhibition, 48 h
Calls of active or inactive are those of the source. Rule as the data show it: active = GI50 up to about 1.1 µM and inactive = higher.
Give your call using only these classes: active, inactive

CN(C)CCCNc1ccnc2cccc([N+](=O)[O-])c12
inactive
C=C1C(=O)C=C[C@]2(C)CC[C@H]3C(=C)C(=O)O[C@@H]3[C@@H]12
inactive
Cc1c(Cl)ccc2c(=O)c3cccc(CC(=O)O)c3oc12
inactive

Q: Dear all, I need the recorded test outcome for N=C(N)N/N=C/c1c(-c2ccccc2)nc2ccn3c(/C=N/N=C(N)N)c(-c4ccccc4)nc3n12 , thank you.
Result: inactive

Q: Dear all, I need the recorded test outcome for COc1cc([C@@H]2c3cc4c(cc3[C@@H](NC(=O)c3cccc(C#N)c3)C3COC(=O)[C@@H]32)OCO4)cc(OC)c1O (some centres undefined) , thank you.
Result: active

Q: Dear all, I need the recorded test outcome for CCOC(=O)C1CCC(=O)N1C(=O)c1cccc(Cl)c1 (centres undefined) , thank you.
Result: inactive

Q: Dear all, I need the recorded test outcome for CC(NC(=O)Cc1ccccc1)NC(=O)C(C)C(=O)Nc1ccccc1 (centres undefined) , thank you.
Result: inactive

Q: Dear all, I need the recorded test outcome for O=[N+]([O-])c1ccc(Sc2c3ccccc3nc3ccccc23)nc1 , thank you.
Result: inactive

Q: Dear all, I need the recorded test outcome for CC1CC(=O)C(CC(=O)O)[C@H]1C(C(=O)C(=O)Nc1cc(Cl)ccc1Cl)[N+](=O)[O-] (some centres undefined) , thank you.
Result: inactive
